B1: FCHO1 (parent)
chain: FTSSPSPFSSSSPENVEDSGLDSP

- Variants of: B1
- ASSAY_PROTOCOL: protein stability index of a GFP-peptide fusion (GPS, HEK-293T) (PSI 1-6); higher = more stable;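 note: lentivirally expressed fusions sorted by FACS into six bins by GFP to DsRed ratio, PSI derived from sequencing read proportions per bin multiplied by bin number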
- TEST_SETTINGS: c terminus: a fixed tail appended
protein stability index values for the variants below.
No unit in the answer, please; the number alone is enough.

FTSSPQPFSSSSPENVEDSGLDSP :: 2.08
FTSSPSPFSSSSPENVEDCGLDSP :: 2.22
FTSSPSPFSSSSPENVEDTGLDSP :: 2.34

Enquiry: Can you look up the measured protein stability index of `FTSSPSLFSSSSPENVEDSGLDSP` for me?
Return: 1.91

Enquiry: Another variant: `FTSRPSPFSSSSPENVEDSGLDSP`
Return: 1.42

Enquiry: Next variant up: `FTSSPSPFSSSSPENVEDSGLTSP`
Return: 2.18

Enquiry: Would you kindly repeat that for `FTSSPSPFSSSSPGNVEDSGLDSP` ?
Return: 1.92

Enquiry: Same again, this time with `FTSSPSPHSSSSPENVEDSGLDSP`
Return: 5.05

Enquiry: // repeat for `FTSSPSMFSSSSPENVEDSGLDSP` and report
Return: 2.1

meta.source: the supplement of paper PMC10567573
